# key: entry, value: IC50
- Test system: UniProt P0AES6
State the answer as a number, implicitly in µM.

Some entries whose results are on file:
Query smiles: CO[C@H]1CN(c2ccc(C(C)(C)O)nn2)CC[C@H]1NC(=O)c1[nH]c(C)c(Cl)c1Cl
Measurement type: IC50
Recorded result: 1.48

Query smiles: CO[C@H]1CN(c2ccc(C(=O)C(F)(F)F)nn2)CC[C@H]1NC(=O)c1[nH]c(C)c(Cl)c1Cl
Measurement type: IC50
Recorded result: 0.788

Query smiles: CO[C@H]1CN(c2ccc(C(F)(F)F)nn2)CC[C@H]1NC(=O)c1[nH]c(C)c(Cl)c1Cl
Measurement type: IC50
Recorded result: 9.31

Query smiles: CO[C@H]1CN(c2ccc(CO)nn2)CC[C@H]1NC(=O)c1[nH]c(C)c(Cl)c1Cl
Measurement type: IC50
Recorded result: 5.11

Continue with the compound presented below.
Which IC50 reading was recorded for the compound CO[C@H]1CN(c2ccc(F)nn2)CC[C@H]1NC(=O)c1[nH]c(C)c(Cl)c1Cl ?
8.21

====

- Test details: Mouse acute toxicity test
- Set-up: species or system ICR mice
- Experimental parameters: both, ICR, in vivo, ip
Measurement type: LD50 at 7 days

Which LD50 at 7 days reading was recorded for the compound CO[C@H]1CN(c2ccc(C(C)(C)O)nn2)CC[C@H]1NC(=O)c1[nH]c(C)c(Cl)c1Cl ?
> 300 mg/kg

====

// each record: one item and its pIC50 for E. coli gyrase (Escherichia coli, UniProt P0AES6)
pIC50: −log10 of the molar value.

Which pIC50 reading was recorded for the compound CO[C@H]1CN(c2ccc(-c3nn[nH]n3)nn2)CC[C@H]1NC(=O)c1[nH]c(C)c(Cl)c1Cl ?
< 5.00

Repeat with CO[C@H]1CN(c2ccc(/C(C)=N/OCC(=O)O)nn2)CC[C@H]1NC(=O)c1[nH]c(C)c(Cl)c1Cl
< 5.00

Repeat with CO[C@H]1CN(c2ccc(Br)nn2)CC[C@H]1NC(=O)c1[nH]c(C)c(Cl)c1Cl
5.13

Repeat with CO[C@H]1CN(c2ccc(C(C)=O)nn2)CC[C@H]1NC(=O)c1[nH]c(C)c(Cl)c1Cl
< 5.00

====

- Test system: E. coli gyrase (Escherichia coli, UniProt P0AES6)
- Test details: Gyrase inhibitory assay
- Type: biochemical
pIC50: −log10 of the molar value.
Measurement type: pIC50

Some entries whose results are on file:
Compound: CO/N=C(\C)c1ccc(N2CC[C@@H](NC(=O)c3[nH]c(C)c(Cl)c3Cl)[C@@H](OC)C2)nn1 [Compound 24]
pIC50: < 5.00
//
Compound: CO[C@H]1CN(c2ccc(/C(C)=N/OC(C)(C)C(=O)O)nn2)CC[C@H]1NC(=O)c1[nH]c(C)c(Cl)c1Cl [Compound 26]
pIC50: 6.06
//
Compound: CO[C@H]1CN(c2ccc(CN)nn2)CC[C@H]1NC(=O)c1[nH]c(C)c(Cl)c1Cl [Compound 34]
pIC50: < 5.00
//
Compound: CCNC(=O)c1ccc(N2CC[C@@H](NC(=O)c3[nH]c(C)c(Cl)c3Cl)[C@@H](OC)C2)nn1 [Compound 31]
pIC50: < 5.00
//
Compound: CO[C@H]1CN(c2ccc(C(=O)NCCN)nn2)CC[C@H]1NC(=O)c1[nH]c(C)c(Cl)c1Cl [Compound 32]
pIC50: < 5.00

Which pIC50 reading was recorded for the compound CCOC(=O)c1cnc(N2CC[C@@H](NC(=O)c3[nH]c(C)c(Cl)c3Cl)[C@@H](OC)C2)nc1 [Compound 12] ?
< 5.00

Repeat with CO[C@H]1CN(c2ccc(C#N)nn2)CC[C@H]1NC(=O)c1[nH]c(C)c(Cl)c1Cl [Compound 20]
< 5.00

Repeat with COC(=O)c1ccc(N2CC[C@@H](NC(=O)c3[nH]c(C)c(Cl)c3Cl)[C@@H](OC)C2)nn1 [Compound 14]
5.51

Repeat with CO[C@H]1CN(c2ccc(/C(C)=N/O)nn2)CC[C@H]1NC(=O)c1[nH]c(C)c(Cl)c1Cl [Compound 23]
5.59
